Tested on: guinea-pig urinary bladder (GPB) cells
procedureText: Membrane hyperpolarization (MHP) assay, DiBAC(4)3 dye, FLIPR
Assay type: cell-based
conditionSummary: Cavia porcellus; membrane hyperpolarization in GPB cells; concentration eliciting 50% of the maximal response of the test sample
reportedProperty: pEC50
// pEC50 here means minus log10 of the molar concentration (mol/L)

What does the data say about its pEC50? Entry: Cn1[nH]c(=O)c2c1NC1=C(C(=O)COC1)C2c1ccc(F)c(Br)c1 (centres unmarked) 7.30

Entry Cn1[nH]c(=O)c2c1NC1=C(C(=O)CCC1)C2c1ccc(F)c(Br)c1 (centres unmarked) has what pEC50? 5.71

Requested read-out: pEC50. Entry: Cn1[nH]c(=O)c2c1NC1=C(C(=O)CC1)C2c1ccc(F)c(C(F)(F)F)c1 (centres unmarked) 6.17

For Cn1[nH]c(=O)c2c1NC1=C(C(=O)CC1)C2c1ccc(F)c(Br)c1 (centres unmarked) , what is its reported pEC50? 6.26

Given the compound Cn1[nH]c(=O)c2c1NC1=C(C(=O)CC1)C2c1ccc(F)c(I)c1 (centres unmarked) , what is its reported pEC50? 6.49

Which value of pEC50 has been reported for Cn1[nH]c(=O)c2c1NC1=C(C(=O)C(C)(C)CC1)C2c1ccc(F)c(I)c1 (centres unmarked) in the records? 7.15
